Test system: Target C CJ mRNA
experiment: Gene panel canonical junction qPCR splicing assay, Target C
Assay type: cell-based
conditionInfo: Table 4, read-out: Target C IC50 (decrease in CJ mRNA levels)
pIC50: −log10 of the molar value.
Recorded pIC50 by entry

molecule: C[C@H]1C[C@H](c2ccc3nc(-c4cc5cn(C)nc5cc4O)ccc3n2)CCN1 (relative stereo)
pIC50: 6.00 to 7.00
--
molecule: Cn1cc2c(O)c(-c3ccc4nc(C5CCNCC5)ccc4n3)ccc2n1
pIC50: 5.00 to 6.00
--
molecule: Cn1cc2cc(-c3ccc4c(F)c(C5CCNCC5)ccc4n3)c(O)cc2n1
pIC50: 5.00 to 6.00
--
molecule: Cc1nc2cc(O)c(-c3ccc4nc(N5CC[C@H](NC6(C)CC6)C5)ccc4n3)cc2o1 (single isomer, unassigned)
pIC50: > 7.00
--
molecule: CN(c1ccc2nc(-c3cc4cn(C)nc4cc3O)ccc2n1)C1CC(C)(C)NC(C)(C)C1
pIC50: < 5.00
--
molecule: Cn1cc2cc(-c3ccc4nc(N5CCC(NC(C)(C)C)CC5)ccc4n3)c(O)cc2n1
pIC50: < 5.00
--
molecule: Cn1cc2cc(-c3ccc4nc(N5CC[C@H](NC6(C)CC6)C5)ccc4n3)c(O)cc2n1 (single isomer, unassigned)
pIC50: > 7.00
--
molecule: COc1cc2nn(C)cc2cc1-c1ccc2c(F)c(C3CCNCC3)ccc2n1
pIC50: < 5.00
--
molecule: Cc1cn2cc(-c3ccc4nc(N5CCC(NC(C)(C)C)C5)ccc4n3)cc(C)c2n1 (stereo not shown)
pIC50: 6.00 to 7.00
--
molecule: O=C(Nc1cn[nH]c1)Nc1cc2nc(N3CCNCC3)ccc2cn1
pIC50: < 5.00
--
molecule: Cc1nc2cc(O)c(-c3ccc4nc(N5CC[C@@H](NC6CC6)C5)ccc4n3)cc2o1 (single isomer, unassigned)
pIC50: 6.00 to 7.00
--
molecule: Cn1cc2cc(-c3ccc4nc(C5CCNCC5)ccc4n3)c(O)cc2n1
pIC50: > 7.00
--
molecule: O=C(NCc1ccn[nH]1)Nc1cc2nc(N3CCNCC3)ccc2cn1
pIC50: < 5.00
--
molecule: Cn1cc2cc(-c3ccc4nc(N5CC(C)(C)NC(C)(C)C5)ccc4n3)c(O)cc2n1
pIC50: < 5.00
--
molecule: Cn1cc2cc(-c3ccc4nc(N5CCC(N6CCCC6)C5)ccc4n3)c(O)cc2n1 (stereo not shown)
pIC50: 6.00 to 7.00
--
molecule: COc1cc2nn(C)cc2cc1-c1ccc2cc(C3CCNCC3)c(F)cc2n1
pIC50: < 5.00
--
molecule: C[C@H]1C[C@@H](c2ccc3nc(-c4cc5cn(C)nc5cc4O)ccc3n2)CCN1 (relative stereo)
pIC50: 6.00 to 7.00
--
molecule: Cn1cc2c(O)c(-c3ncc4nc(C5CCNCC5)ccc4n3)ccc2n1
pIC50: 5.00 to 6.00
--
molecule: Cn1cc2cc(-c3ccc4nc(N5CC[C@]67CCN[C@H]6CC[C@H]57)ccc4n3)c(O)cc2n1
pIC50: 5.00 to 6.00
--
molecule: COc1cc2ccncc2cc1-c1ccc2nc(N3CCC(NC(C)(C)C)C3)ccc2n1 (stereo not shown)
pIC50: < 5.00
--
molecule: Cn1cc2cc(-c3ccc4nc(N5CC[C@H](NCC6CC6)C5)ccc4n3)c(O)cc2n1
pIC50: > 7.00
--
molecule: CN[C@@H]1CCN(c2ccc3nc(-c4cc5cn(C)nc5cc4O)ccc3n2)C1
pIC50: 6.00 to 7.00
--
molecule: Cc1nc2cc(O)c(-c3ccc4nc(N5CC[C@@H](NC(C)C)C5)ccc4n3)cc2o1 (single isomer, unassigned)
pIC50: > 7.00
--
molecule: CN1CCN(c2ccc3nc(-c4cc5cn(C)nc5cc4O)ccc3n2)CC1
pIC50: 5.00 to 6.00
--
molecule: Cc1nc2c(C)c(O)c(-c3ccc4nc(N5CCC(NC6CC6)C5)ccc4n3)cc2o1 (single isomer, unassigned) [Compound 217]
pIC50: > 7.00
--
molecule: Cn1cc2cc(-c3ccc4cc(C5CCNCC5)ccc4n3)c(O)cc2n1
pIC50: 6.00 to 7.00
--
molecule: CC1CN(c2ccc3nc(-c4cc5cn(C)nc5cc4O)ccc3n2)CCN1C (stereo not shown)
pIC50: 5.00 to 6.00
--
molecule: Cn1cc2cc(-c3ccc4nc(C5CCNCC5)ccc4n3)c(C#N)cc2n1
pIC50: < 5.00
--
molecule: Cn1cc2cc(-c3ccc4nc(N5CC[C@H](NC6CCC6)C5)ccc4n3)c(O)cc2n1
pIC50: 6.00 to 7.00
--
molecule: Cn1cc2cc(-c3ccc4nc(N5CCC(NC6CC6)C5)ccc4n3)c(O)cc2n1 (stereo not shown)
pIC50: > 7.00
--
molecule: Cn1cc2cc(-c3ccc4nc(N5C[C@H]6CC[C@@H](C5)N6)ccc4n3)c(O)cc2n1
pIC50: 5.00 to 6.00
